# Test system: Escherichia coli
# protocol: In vivo efficacy of compounds administered subcutaneously in mouse intraperitoneal infections
# experimental conditions: sc, 168 h; mouse i.p. Escherichia coli infection; subcutaneous; dosed at infection and 4 h post-infection; 7 days; read-out: ED50 (50 percent effective dose)
Quick rule for you: ED50 under 60 mg/kg gets 1, anything else gets -1.

                                   compound  experimental_system  category_label
0  CC(=O)NCC1CN(c2ccc(S)cc2)C(=O)O1 (single isomer, unassigned) [Example 153]     Escherichia coli               1
1  CCCc1ccc(N2CC(CNC(C)=O)OC2=O)cc1 (stereo not drawn) [Example 136]     Escherichia coli              -1
2  COC(=O)NCC1CN(c2ccc(C(C)C)cc2)C(=O)O1 (stereo not drawn) [Example 39]     Escherichia coli              -1
3  CC(=O)NCC1CN(c2ccc([S+](C)[O-])cc2)C(=O)O1 (single isomer, unassigned) [Example 120]     Escherichia coli               1
4  CC(=O)NCC1CN(c2ccc(F)cc2)C(=O)O1 (stereo not drawn) [Example 88]     Escherichia coli              -1
5  CC(=O)NCC1CN(c2ccc(C(C)=O)c(C)c2)C(=O)O1 (stereo not drawn) [Example 142]     Escherichia coli               1
6  CCCCCCN(CC1CN(c2ccc(S(C)(=O)=O)cc2)C(=O)O1)C(C)=O (racemic) [Example 122]     Escherichia coli              -1
7  COC(=O)NCC1CN(c2ccc(C(C)=O)cc2)C(=O)O1 (stereo not drawn) [Example 179]     Escherichia coli              -1
8  CC(=O)NCC1CN(c2ccc(C(=O)CCl)cc2)C(=O)O1 (stereo not drawn) [Example 135]     Escherichia coli              -1

* * *

# System: Staphylococcus epidermidis
# protocol: In vitro broth dilution minimal inhibitory concentration (standard microdilution method)
# Type: cell-based
# experimental conditions: 24 h, Mueller-Hinton broth, 24-hour, read-out: Microdilution Broth MIC
# Lookup of reported MIC keyed by entry
quantity name: MIC (µg/mL)

>>> df
                                   compound         experimental_system  value_operator  recorded_measurement
0  CCC(=O)c1ccc(N2CC(CNC(C)=O)OC2=O)cc1 (centres unmarked)  Staphylococcus epidermidis               =                   0.4
1  CSc1ccc(N2CC(CNC(=O)C3CC3)OC2=O)cc1 (centres unmarked)  Staphylococcus epidermidis               =                    50
2  COC(=O)NCC1CN(c2ccc(S(=O)(=O)N=[N+]=[N-])cc2)C(=O)O1 (centres unmarked)  Staphylococcus epidermidis               =                   200
3  CC(=O)NCC1CN(c2ccc(S(=O)(=O)N=[N+]=[N-])cc2)C(=O)O1 (single isomer, unassigned)  Staphylococcus epidermidis               =                   200
4  COC(=O)NCC1CN(c2ccc(Cl)cc2)C(=O)O1 (centres unmarked)  Staphylococcus epidermidis               >                   128
